System: 3D human liver microtissues (hLiMT)
PROCEDURE_SUMMARY: Cytotoxicity (cellular ATP, CellTiter-Glo 2.0) in 3D human liver microtissues, 14 day repeat-dose treatment
CONDITION_CONTEXT: Homo sapiens, Hepatocyte, 336 h, read-out: Geomean IC50 [µM]
READOUT_LABEL: IC50

CCN(CC)CCCC(C)Nc1c2ccc(Cl)cc2nc2ccc(OC)cc12 (centres unmarked) [Quinacrine]    > 2 µM
N[C@@H](Cc1cc(I)c(Oc2ccc(O)c(I)c2)c(I)c1)C(=O)O [Liothyronine]    > 10 µM
Cn1cnc([N+](=O)[O-])c1Sc1ncnc2nc[nH]c12 [Azathioprine]    22.2 µM
CN1C(C(=O)Nc2nccs2)=C(O)c2ccccc2S1(=O)=O [Sudoxicam]    > 100 µM
CO[C@@]12[C@H](COC(N)=O)C3=C(C(=O)C(C)=C(N)C3=O)N1C[C@@H]1N[C@@H]12 [Mitomycin C]    < 0.8 µM
Cc1cn([C@H]2C=C[C@@H](CO)O2)c(=O)[nH]c1=O [Stavudine]    > 500 µM
CCOC(=O)c1ncn2c1CN(C)C(=O)c1cc(F)ccc1-2 [Flumazenil]    > 250 µM
C[C@@H]1C[C@H]2[C@@H]3CCC4=CC(=O)C=C[C@]4(C)[C@@]3(F)[C@@H](O)C[C@]2(C)[C@@]1(O)C(=O)CO [Dexamethasone]    > 100 µM

---

Listing of recorded IC50 by entry.
Tested on: 3D human liver microtissues (hLiMT)
PROCEDURE_SUMMARY: Cytotoxicity (cellular ATP, CellTiter-Glo 2.0) in 3D human liver microtissues, 14 day repeat-dose treatment
CONDITION_CONTEXT: Homo sapiens, Hepatocyte, 336 h, read-out: Geomean IC50 [µM]
READOUT_LABEL: IC50

CC(=O)N1CCN(c2ccc(OCC3COC(Cn4ccnc4)(c4ccc(Cl)cc4Cl)O3)cc2)CC1 (stereo not drawn)    4.6 µM
CC(C)[N+](C)(CCOC(=O)C1c2ccccc2Oc2ccccc21)C(C)C    > 50 µM
CCCCNc1cc(C(=O)O)cc(S(N)(=O)=O)c1Oc1ccccc1 [Bumetanide]    > 10 µM
CC(c1cc2ccccc2s1)N(O)C(N)=O (stereo not drawn)    > 100 µM
CCOC(=O)C1=C(C)NC(C)=C(C(=O)OC)C1c1cccc(Cl)c1Cl (stereo not drawn)    > 10 µM
CC(C)C(=O)Nc1ccc([N+](=O)[O-])c(C(F)(F)F)c1 [Flutamide]    25.7 µM
COC(c1ccccc1)(c1ccccc1)[C@H](Oc1nc(C)cc(C)n1)C(=O)O    > 100 µM
[H]/N=C(/N)c1ccc(NCc2nc3cc(C(=O)N(CCC(=O)O)c4ccccn4)ccc3n2C)cc1    > 50 µM
C[C@H]1O[C@@H](O[C@H]2[C@@H](O)C[C@H](O[C@H]3[C@@H](O)C[C@H](O[C@H]4CC[C@@]5(C)[C@H](CC[C@@H]6[C@@H]5C[C@@H](O)[C@]5(C)[C@@H](C7=CC(=O)OC7)CC[C@]65O)C4)O[C@@H]3C)O[C@@H]2C)C[C@H](O)[C@@H]1O    0.33 µM
CN(C)C(=O)Oc1cccc([N+](C)(C)C)c1    > 10 µM
Cn1c(=O)c2[nH]cnc2n(C)c1=O    > 100 µM
CN1C[C@H](CNC(=O)OCc2ccccc2)C[C@@H]2c3cccc4c3c(cn4C)C[C@H]21    7.8 µM
Nc1nc(F)nc2c1ncn2[C@@H]1O[C@H](CO)[C@@H](O)[C@@H]1O    6.8 µM
Cc1c(-c2ccccc2)oc2c(C(=O)OCCN3CCCCC3)cccc2c1=O [Flavoxate]    > 10 µM
CCN(CC)CCNC(=O)c1c(C)[nH]c(/C=C2\C(=O)Nc3ccc(F)cc32)c1C    ~2 µM

---

Tested on: 3D human liver microtissues (hLiMT)
PROCEDURE_SUMMARY: Cytotoxicity (cellular ATP, CellTiter-Glo 2.0) in 3D human liver microtissues, 14 day repeat-dose treatment
CONDITION_CONTEXT: Homo sapiens, Hepatocyte, 336 h, read-out: Geomean IC50 [µM]
Listing of recorded IC50 by entry.
READOUT_LABEL: IC50

CC(=O)Nc1ccc(O)cc1    ~573 µM
CCc1nn(CCCN2CCN(c3cccc(Cl)c3)CC2)c(=O)n1CCOc1ccccc1    ~29.4 µM
Cc1ccc(C(=O)c2cc(O)c(O)c([N+](=O)[O-])c2)cc1    ~19 µM
CCN(CC)Cc1cc(Nc2ccnc3cc(Cl)ccc23)ccc1O    < 7.8 µM
CN(Cc1cnc2nc(N)nc(N)c2n1)c1ccc(C(=O)N[C@@H](CCC(=O)O)C(=O)O)cc1 [Methotrexate]    > 100 µM
CC(C)(C)NCC(O)COc1cccc2c1CC(O)C(O)C2 (stereo not drawn)    > 100 µM
CCc1ccc(CCOc2ccc(CC3SC(=O)NC3=O)cc2)nc1 (stereo not drawn)    > 15.6 µM
C[N+](C)(C)C[C@H](O)CC(=O)[O-]    > 10000 µM
Cc1cc(CC(=O)O)n(C)c1C(=O)c1ccc(Cl)cc1 [Zomepirac]    > 1000 µM

---

System: 3D human liver microtissues (hLiMT)
PROCEDURE_SUMMARY: Cytotoxicity (cellular ATP, CellTiter-Glo 2.0) in 3D human liver microtissues, 14 day repeat-dose treatment
CONDITION_CONTEXT: Homo sapiens, Hepatocyte, 336 h, read-out: Geomean IC50 [µM]
Listing of recorded IC50 by entry.
READOUT_LABEL: IC50

[H]/N=C(/N)N[C@H]1[C@H](O)[C@@H](O)[C@H](O[C@@H]2O[C@@H](C)[C@](O)(C=O)[C@H]2O[C@@H]2O[C@@H](CO)[C@H](O)[C@@H](O)[C@@H]2NC)[C@@H](N/C(N)=N\[H])[C@@H]1O    > 100 µM
O=C1CC2(CCCC2)CC(=O)N1CCCCN1CCN(c2ncccn2)CC1    163 µM
Cc1ccc(N(CC2=NCCN2)c2cccc(O)c2)cc1    > 100 µM
OC(CCN1CCCC1)(c1ccccc1)C1CCCCC1 (centres unmarked)    117 µM
CCN1C(=O)NC(c2ccccc2)C1=O (centres unmarked)    > 150 µM
COc1ccc2c(c1)c(CC(=O)O)c(C)n2C(=O)c1ccc(Cl)cc1    > 100 µM
Cc1c(C)c2c(c(C)c1O)CCC(C)(COc1ccc(CC3SC(=O)NC3=O)cc1)O2 (centres unmarked)    ~14.6 µM
C1CCC(C(CC2CCCCN2)C2CCCCC2)CC1 (centres unmarked)    ~2.6 µM

---

Tested on: 3D human liver microtissues (hLiMT)
PROCEDURE_SUMMARY: Cytotoxicity (cellular ATP, CellTiter-Glo 2.0) in 3D human liver microtissues, 14 day repeat-dose treatment
CONDITION_CONTEXT: Homo sapiens, Hepatocyte, 336 h, read-out: Geomean IC50 [µM]
READOUT_LABEL: IC50 (µM)

CC(C)c1c(C(=O)Nc2ccccc2)c(-c2ccccc2)c(-c2ccc(F)cc2)n1CC[C@@H](O)C[C@@H](O)CC(=O)O    6
Cc1onc(-c2c(F)cccc2Cl)c1C(=O)N[C@@H]1C(=O)N2[C@@H]1SC(C)(C)[C@@H]2C(=O)O    12200
CS(=O)(=O)Nc1ccc([N+](=O)[O-])cc1Oc1ccccc1 [Nimesulide]    60.5

---

System: 3D human liver microtissues (hLiMT)
PROCEDURE_SUMMARY: Cytotoxicity (cellular ATP, CellTiter-Glo 2.0) in 3D human liver microtissues, 14 day repeat-dose treatment
CONDITION_CONTEXT: Homo sapiens, Hepatocyte, 336 h, read-out: Geomean IC50 [µM]
Listing of recorded IC50 by entry.
READOUT_LABEL: IC50

CCCC(CCC)C(=O)O [Valproic acid]    > 100 µM
O=C(NC1CCN(CCc2c[nH]c3ccccc23)CC1)c1ccccc1 [Indoramin]    > 50 µM
CN(C)CCC=C1c2ccccc2CCc2ccccc21 [Amitriptyline]    18.8 µM
CN[C@@H]1[C@H](O)[C@H](NC)[C@H]2O[C@@]3(O)C(=O)C[C@@H](C)O[C@H]3O[C@@H]2[C@H]1O [Spectinomycin]    > 100 µM
O=C(O)Cc1ccccc1Nc1c(Cl)cccc1Cl [Diclofenac]    ~61.4 µM
CC(C)(C)NC[C@H](O)COc1ccccc1C1CCCC1 [Penbutolol]    ~39 µM
CCOC(=O)CN[C@@H](C(=O)N1CC[C@H]1C(=O)NCc1ccc(/C(N)=N\O)cc1)C1CCCCC1 [Ximelagatran]    ~151 µM
Fc1ccc([C@@H]2CCNC[C@H]2COc2ccc3c(c2)OCO3)cc1 [Paroxetine]    12 µM
CC1=C(/C=C/C(C)=C/C=C/C(C)=C/C(=O)O)C(C)(C)CCC1 [Tretinoin]    > 17 µM
